Target System: HEK-Blue-hTLR9 cells (Homo sapiens, UniProt Q9NR96)
Sequence (Q9NR96 26-1032): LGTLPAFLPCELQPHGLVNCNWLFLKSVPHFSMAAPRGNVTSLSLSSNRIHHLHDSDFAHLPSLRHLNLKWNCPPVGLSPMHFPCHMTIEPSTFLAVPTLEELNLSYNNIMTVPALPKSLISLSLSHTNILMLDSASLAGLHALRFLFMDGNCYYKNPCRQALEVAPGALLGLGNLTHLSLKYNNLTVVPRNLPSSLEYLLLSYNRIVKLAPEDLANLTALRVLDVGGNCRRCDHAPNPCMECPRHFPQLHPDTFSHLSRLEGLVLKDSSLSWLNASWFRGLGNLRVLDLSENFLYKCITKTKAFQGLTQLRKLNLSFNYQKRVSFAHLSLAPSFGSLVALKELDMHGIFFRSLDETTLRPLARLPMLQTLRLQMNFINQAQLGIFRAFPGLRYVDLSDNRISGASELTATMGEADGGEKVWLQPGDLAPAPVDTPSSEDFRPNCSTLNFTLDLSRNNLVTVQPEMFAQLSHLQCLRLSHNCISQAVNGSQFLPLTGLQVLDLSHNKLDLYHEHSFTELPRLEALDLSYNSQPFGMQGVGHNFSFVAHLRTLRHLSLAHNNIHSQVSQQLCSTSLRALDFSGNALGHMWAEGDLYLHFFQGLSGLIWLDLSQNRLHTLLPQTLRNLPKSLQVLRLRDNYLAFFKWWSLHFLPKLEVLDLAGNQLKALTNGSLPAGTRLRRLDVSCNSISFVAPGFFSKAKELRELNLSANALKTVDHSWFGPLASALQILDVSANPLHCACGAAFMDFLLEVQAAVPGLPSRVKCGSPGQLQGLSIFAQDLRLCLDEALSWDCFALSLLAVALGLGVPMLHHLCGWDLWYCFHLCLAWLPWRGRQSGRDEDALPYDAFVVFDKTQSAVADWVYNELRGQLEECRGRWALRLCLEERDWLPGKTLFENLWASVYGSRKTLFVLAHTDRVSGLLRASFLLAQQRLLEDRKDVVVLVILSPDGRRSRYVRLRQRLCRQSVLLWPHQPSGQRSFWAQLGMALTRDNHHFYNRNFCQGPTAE
Experimental Details: HEK-Blue-hTLR9 cell inhibition assay
Measurement Conditions: ODN2006 1 µM, 16 h, OD 620 nm, read-out: TLR9 IC50
Reported Endpoint: IC50

Solved cases below.
INSERT INTO results (compound_structure, data_value) VALUES
  ('N#Cc1ccc(N2C[C@]3(c4nnc(N)o4)C[C@]3(C(F)(F)F)C2)c2cccnc12', '> 10000 nM'),
  ('N#Cc1ccc(N2C[C@]3(c4nnc(C5=CCNC5)o4)C[C@]3(C(F)(F)F)C2)c2cccnc12', '> 10000 nM'),
  ('CN1CCC(c2nnc([C@]34CN(c5ccc(C#N)n6nccc56)C[C@@]3(C(F)(F)F)C4)o2)CC1', '> 1000 nM');

Kindly give each listed record's IC50.
1. CN1CCC(c2nnc([C@]34CN(c5ccc(C#N)n6ncc(Br)c56)C[C@@]3(C(F)(F)F)C4)o2)CC1
2. CN1CCC(Cc2nnc([C@]34CN(c5ccc(C#N)c6ncccc56)C[C@@]3(C(F)(F)F)C4)n2C)CC1

Result:
> 1000 nM
> 10000 nM

Quick request: IC50 for each listed item, please.
1. CN1CCC(c2nnc([C@]34CN(c5c(Br)cc(C#N)n6nccc56)C[C@@]3(C(F)(F)F)C4)o2)CC1
2. CN1CCC(c2nnc([C@]34CN(c5ccc(C#N)c6ncccc56)C[C@@]3(C(F)(F)F)C4)n2C)CC1
3. CN1CC2(CC(c3nnc([C@]45CN(c6ccc(C#N)c7ncccc67)C[C@@]4(C(F)(F)F)C5)o3)C2)C1

Result:
1. > 1000 nM
2. > 1000 nM
3. > 1000 nM

Query: For the compound CN1[C@@H]2CC[C@H]1C[C@H](c1nnc([C@]34CN(c5ccc(C#N)c6ncccc56)C[C@@]3(C(F)(F)F)C4)o1)C2 , what IC50 is on record?
Result: > 1000 nM

src = patent EP4806891A1
